Can you tell me pIC50 for the items I'm about to list?
biological target: Neprilysin (Canis familiaris); assay: Inhibition of dog NEP
One number for each entry, as −log10 of the molar value.

Past entries and their recorded results:
CCCC(CC1(c2nnc(Cc3ccccc3)o2)CCCC1)C(=O)O (stereo not given): 5.51
CCc1nnc(NC(=O)C2(CCC(=O)O)CCCC2)s1: 6.63
CCCCc1ccnc(NC(=O)C2(CC(CCC)C(=O)O)CCCC2)c1 (stereo not given): 6.74
CCCC(CC1(C(=O)N[C@@H]2CC[C@H](C(N)=O)C2)CCCC1)C(=O)O (stereo not given in full): 6.67
CCCC(CC1(C(=O)N[C@@H]2CCN(Cc3ccccc3)C2)CCCC1)C(=O)O (stereo not given in full): 5.97
CCCC(CC1(c2nnc(-c3ccc(=O)n(Cc4ccccc4)c3)o2)CCCC1)C(=O)O (stereo not given): 5.94

Could you tell me pIC50 for each of these molecules? They are listed below.
1. CCc1nnc(NC(=O)C2(CC(CCc3ccccc3)C(=O)O)CCCC2)s1 (stereo not given)
2. CCCC(CC1(C(=O)N[C@@H]2CCCC[C@@H]2Cc2ccccc2)CCCC1)C(=O)O (stereo not given in full)
3. CCCC(CC1(C(=O)Nc2ccc(=O)n(Cc3ccccc3)c2)CCCC1)C(=O)O (stereo not given)
4. CCCC(CC1(C(=O)N[C@H]2CC[C@@H](C(N)=O)CC2)CCCC1)C(=O)O (stereo not given in full)

1. 7.34
2. 6.71
3. 6.50
4. 6.82
